System Tested: Dihydrofolate reductase (Pneumocystis carinii)
Sequence (P16184 whole entry): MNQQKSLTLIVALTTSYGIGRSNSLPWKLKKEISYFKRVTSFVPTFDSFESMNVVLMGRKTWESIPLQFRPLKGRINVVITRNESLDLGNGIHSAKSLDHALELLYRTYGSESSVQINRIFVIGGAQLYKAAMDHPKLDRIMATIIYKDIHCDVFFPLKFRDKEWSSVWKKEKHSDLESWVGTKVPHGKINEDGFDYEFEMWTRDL
Metric Name: IC50 (µM)

{"Structure Notation": "Nc1nc(N)c2c(CNc3ccc4ccccc4c3)coc2n1", "IC50, µM": 41}

1: CN(Cc1coc2nc(N)nc(N)c12)c1ccc(Cl)c(Cl)c1
2: CN(Cc1coc2nc(N)nc(N)c12)c1cc(Cl)c(Cl)c(Cl)c1
// query Lower IC50: 1 or 2 ? To answer, give the label that identifies your chosen option.
// result 1
(1: 44.8 µM, 2: 284 µM)
